Assay: Fraction unbound in plasma (unknown origin)
Type: ADME, cell-free

[
  {
    "Smiles Str": "CC(C)(C)NC(=O)c1ccc(Oc2cc(F)c(CC(=O)O)cc2Cl)c(NS(=O)(=O)c2ccc(C3CC3)cc2Cl)c1",
    "fraction unbound": 0.003
  }
]

###

Target: Cytochrome P450 2C9 (Homo sapiens, UniProt P11712)
Sequence (P11712 whole entry): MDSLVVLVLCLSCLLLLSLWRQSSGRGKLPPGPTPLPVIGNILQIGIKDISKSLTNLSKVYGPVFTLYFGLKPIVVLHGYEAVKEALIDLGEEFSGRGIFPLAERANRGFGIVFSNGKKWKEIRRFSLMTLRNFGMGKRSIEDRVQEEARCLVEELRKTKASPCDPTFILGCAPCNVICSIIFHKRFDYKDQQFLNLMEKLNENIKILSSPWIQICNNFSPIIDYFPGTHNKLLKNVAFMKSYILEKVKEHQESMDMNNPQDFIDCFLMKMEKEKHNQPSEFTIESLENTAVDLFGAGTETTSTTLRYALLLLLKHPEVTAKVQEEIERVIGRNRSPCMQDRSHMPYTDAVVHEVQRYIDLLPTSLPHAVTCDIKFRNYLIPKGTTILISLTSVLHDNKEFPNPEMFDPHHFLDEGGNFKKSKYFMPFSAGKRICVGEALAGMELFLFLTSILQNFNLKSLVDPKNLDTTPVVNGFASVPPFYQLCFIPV
pKi: −log10 of the molar value.

[
  {
    "Smiles Str": "CC(C)(C)NC(=O)c1ccc(Oc2cc(F)c(CC(=O)O[C@@H]3O[C@H](C(=O)O)[C@@H](O)[C@H](O)[C@H]3O)cc2Cl)c(NS(=O)(=O)c2ccc(C3CC3)cc2Cl)c1",
    "pKi": "< 4.52"
  },
  {
    "Smiles Str": "CC(C)(C)NC(=O)c1ccc(Oc2cc(F)c(CC(=O)O)cc2Cl)c(NS(=O)(=O)c2ccc(C3CC3)cc2Cl)c1",
    "pKi": "< 4.52"
  }
]
